# Tested on: NOMO1
# experiment notes: cell viability relative to DMSO control; higher = less cytotoxic
# assay context: RPMI 5 mM glucose + 10% dialyzed FBS; 48 h; 0.0211 µM
I'd be grateful if you could share measured cell viability for these entries.
Record the value in %, omitting the unit from your answer.

Lab note: measured cell viability of CCc1ccc(C(=O)Nc2cc(CN3CCN(C)CC3)cc(C(F)(F)F)c2)cc1C#Cc1cnc2ccnn2c1 was 112

Lab note: measured cell viability of CCOC(CN1C(=O)[C@](CC(=O)Nc2ccc(C)cc2)(NC(=O)Nc2ccc(C)cc2)c2ccccc21)OCC was 99.8

Lab note: measured cell viability of C[C@H]1C[C@H]2[C@@H]3CCC4=CC(=O)C=C[C@]4(C)[C@H]3C(=O)C[C@]2(C)[C@@]1(O)C(=O)CO was 56.5

Lab note: measured cell viability of C/C(=C\c1csc(C)n1)[C@@H]1C[C@@H]2O[C@]2(C)CCC[C@H](C)[C@H](O)[C@@H](C)C(=O)C(C)(C)[C@@H](O)CC(=O)O1 was 39.2

Lab note: measured cell viability of COc1cc(NC(=O)c2ccc(-c3ccc(Cl)cc3)o2)cc(OC)c1 was 108

Lab note: measured cell viability of O=[S+]([O-])(O)c1ccc2cc(/N=N/c3cc([S+](=O)([O-])O)c4cccnc4c3O)ccc2c1 was 115

Lab note: measured cell viability of FC1=CC=C(CN2\C=C/C=C(/C(=O)N[C@@H](COC3=CC4=C(NC(=O)N4)C=C3)C5=CC=CC=C5)C2=O)C=C1F was 82.8

Lab note: measured cell viability of NCCCC(O)(P(=O)(O)O)P(=O)(O)O.O.O.O.[Na+] was 123

Lab note: measured cell viability of O=[N+]([O-])c1ccc(Nc2ccccc2-c2ccccc2)c2nonc12 was 89.8

Lab note: measured cell viability of CN1CCN(Cc2ccc(NC(=O)Nc3ccc(Oc4cc(NC(=O)C5CC5)ncn4)cc3)cc2C(F)(F)F)CC1 was 125

Lab note: measured cell viability of O=[S+]([O-])(CCSSCC[S+](=O)([O-])[O][Na])[O][Na] was 130

Lab note: measured cell viability of O=C(NCCCNc1nc(Nc2cccc(NC(=O)N3CCCC3)c2)ncc1I)c1cccs1 was 75

Lab note: measured cell viability of Cn1cnc(-c2cc3nccc(Oc4ccc(NC(=S)NC(=O)Cc5ccccc5)cc4F)c3s2)c1 was 86

Lab note: measured cell viability of Nc1nc(Nc2ccc([S+](N)(=O)[O-])cc2)nn1C(=O)c1c(F)cccc1F was 91.5

Lab note: measured cell viability of O=C(O)[C@@H](c1ccc(OCc2ccc3ccccc3n2)cc1)C1CCCC1 was 113

====

# Tested on: SEM cells
# experiment notes: cell viability relative to DMSO control; higher = less cytotoxic
# assay context: RPMI 5 mM glucose + 10% FBS; 48 h; 0.000781 µM
measurement kind: cell viability (%)
Record the value in %, omitting the unit from your answer.

Lab note: measured cell viability of C/C(=C\c1csc(C)n1)[C@@H]1C[C@@H]2O[C@]2(C)CCC[C@H](C)[C@H](O)[C@@H](C)C(=O)C(C)(C)[C@@H](O)CC(=O)O1 was 11.4

Lab note: measured cell viability of CO[C@H]1/C=C/O[C@@]2(C)Oc3c(C)c(O)c4c(O)c(c(/C=N\N5CCN(C6CCCC6)CC5)c(O)c4c3C2=O)NC(=O)/C(C)=C\C=C\[C@H](C)[C@H](O)[C@@H](C)[C@@H](O)[C@@H](C)[C@H](OC(C)=O)[C@@H]1C was 39.3

Lab note: measured cell viability of O=[N+]([O-])c1ccc(Nc2ccccc2-c2ccccc2)c2nonc12 was 93.5

Lab note: measured cell viability of CCC[C@@H](C=O)NC(=O)[C@H](CC(C)C)NC(=O)[C@H](CC(C)C)NC(=O)OCc1ccccc1 was 105

Lab note: measured cell viability of COc1cc(NC(=O)c2ccc(-c3ccc(Cl)cc3)o2)cc(OC)c1 was 77.7

Lab note: measured cell viability of CCc1c(O)cc(O)c(C(=O)c2ccc(OCCN3CCOCC3)c(OC)c2)c1CC(=O)N(CCOC)CCOC was 122

Lab note: measured cell viability of CC(=O)OCC(=O)[C@@]12OC(C)(C)O[C@@H]1C[C@H]3[C@@H]4C[C@H](F)C/5=C/C(=O)/C=C\[C@]5(C)[C@@]4(F)[C@@H](O)C[C@]23C was 103

====

# Test system: SEM cells
# experiment notes: cell viability relative to DMSO control; higher = less cytotoxic
# assay context: RPMI 5 mM glucose + 10% dialyzed FBS; 48 h; 15.4 µM
Decide using cell viability alone. Strictly below 90%: Criterion met. Equal to or above 90%: Criterion not met.

For CCCc1nc2c(C)cc(-c3nc4ccccc4n3C)cc2n1Cc1ccc(-c2ccccc2C(=O)O)cc1 , is the recorded cell viability below the cut-off of 90%? Criterion not met

For C[N]1N=CC2=C1C=C(C(=C2)OC3=CC=C(NC(=O)\C4=C\C=C(\C)N(C4=O)C5=CC=C(F)C=C5)C=C3F)C6=C[NH]N=C6 , is the recorded cell viability below the cut-off of 90%? Criterion met

For C[C@H]1C[C@H]2[C@@H]3CCC4=CC(=O)C=C[C@]4(C)[C@H]3C(=O)C[C@]2(C)[C@@]1(O)C(=O)CO , is the recorded cell viability below the cut-off of 90%? Criterion met

For NCCCC(O)(P(=O)(O)O)P(=O)(O)O.O.O.O.[Na+] , is the recorded cell viability below the cut-off of 90%? Criterion met

For O=C(NCCO[N+](=O)[O-])c1cccnc1 , is the recorded cell viability below the cut-off of 90%? Criterion not met

For Cn1c(=O)c2[nH]cnc2n(C)c1=O , is the recorded cell viability below the cut-off of 90%? Criterion not met

For CN(C)CC[C@H](CSc1ccccc1)Nc1ccc([S+](=O)([O-])NC(=O)c2ccc(N3CCN(Cc4ccccc4-c4ccc(Cl)cc4)CC3)cc2)cc1[N+](=O)[O-] , is the recorded cell viability below the cut-off of 90%? Criterion met

For CN(C)/[N+]([O-])=N/Oc1cc(ON[N+](=O)N2CCN(C(=O)c3cc(Cc4n[nH]c(=O)c5ccccc45)ccc3F)CC2)c([N+](=O)[O-])cc1[N+](=O)[O-] , is the recorded cell viability below the cut-off of 90%? Criterion not met

For CCCCOc1ccc(CC(=O)NO)cc1 , is the recorded cell viability below the cut-off of 90%? Criterion not met

For CN1CCN(Cc2ccc(NC(=O)Nc3ccc(Oc4cc(NC(=O)C5CC5)ncn4)cc3)cc2C(F)(F)F)CC1 , is the recorded cell viability below the cut-off of 90%? Criterion met

For COc1cccc2c(NCc3ccccc3)nc(-n3c(N)nc4ccccc43)nc12 , is the recorded cell viability below the cut-off of 90%? Criterion met

For CNC(=O)c1ccc(N2C(=S)N(c3ccc(C#N)c(C(F)(F)F)c3)C(=O)C2(C)C)cc1F , is the recorded cell viability below the cut-off of 90%? Criterion not met

For O=C(NCCCNc1nc(Nc2cccc(NC(=O)N3CCCC3)c2)ncc1I)c1cccs1 , is the recorded cell viability below the cut-off of 90%? Criterion met

For NCCCCCC(=O)O , is the recorded cell viability below the cut-off of 90%? Criterion not met

For O=C(Nc1ccc([N+](=O)[O-])cc1Cl)c1cc(Cl)ccc1O , is the recorded cell viability below the cut-off of 90%? Criterion met

For CCCOc1ccc2[nH]c(NC(=O)OC)nc2c1 , is the recorded cell viability below the cut-off of 90%? Criterion met

For C=C[C@H]1CN2CCC1C[C@@H]2[C@@H](O)c1ccnc2ccccc12 (stereo partly drawn) , is the recorded cell viability below the cut-off of 90%? Criterion met

====

I'd be grateful if you could share measured cell viability for these entries.
# Test system: P12-Ichikawa
# experiment notes: cell viability relative to DMSO control; higher = less cytotoxic
# assay context: HPLM + 10% dialyzed FBS; 48 h; 0.19 µM
Record the value in %, omitting the unit from your answer.

Lab note: measured cell viability of OC1=CC2=C(C(=O)\C=C(/O2)C3=CC=CC=C3)C(=C1O)O was 106

Lab note: measured cell viability of OC(CCN1CCCCC1)(C2CC\3CC2\C=C3)C4=CC=CC=C4 (stereo not given) was 122

Lab note: measured cell viability of CN(C)/[N+]([O-])=N/Oc1cc(ON[N+](=O)N2CCN(C(=O)c3cc(Cc4n[nH]c(=O)c5ccccc45)ccc3F)CC2)c([N+](=O)[O-])cc1[N+](=O)[O-] was 109

Lab note: measured cell viability of CC1(C)Cc2c(sc(NC(=S)NC(=O)c3ccccc3)c2C(=O)O)CO1 was 115

Lab note: measured cell viability of O=C1CCC[C@@H]2[C@H]3CCC[N+]4([O-])CCC[C@@H](CN12)[C@@H]34 (stereo not given in full) was 92.9
